- System tested: Vitamin D3 receptor (Homo sapiens) (UniProt P11473)
- Sequence (P11473 whole entry, looked up): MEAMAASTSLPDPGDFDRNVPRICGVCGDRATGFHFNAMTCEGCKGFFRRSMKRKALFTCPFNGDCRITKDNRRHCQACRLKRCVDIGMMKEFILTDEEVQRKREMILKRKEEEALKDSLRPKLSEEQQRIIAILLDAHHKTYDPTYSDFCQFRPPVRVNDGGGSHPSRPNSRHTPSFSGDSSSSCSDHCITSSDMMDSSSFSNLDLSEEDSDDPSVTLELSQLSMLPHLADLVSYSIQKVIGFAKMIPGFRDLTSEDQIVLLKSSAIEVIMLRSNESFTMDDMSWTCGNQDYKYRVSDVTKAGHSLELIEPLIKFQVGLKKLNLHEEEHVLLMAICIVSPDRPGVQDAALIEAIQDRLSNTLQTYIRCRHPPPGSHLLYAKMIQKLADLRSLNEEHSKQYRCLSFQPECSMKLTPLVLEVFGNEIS
- Assay overview: Inhibitors of the vitamin D receptor (VDR): qHTS; note: % is set by controls: 0 for no effect and ±100 for the full control effect
- Test parameters: VDR-SRC2-3 peptide fluorescence polarization, 2 h; hits give low values
The whole screen tested about 400,000 compounds, of which about 3,700 (0.93%) were called active. Not shown: some 3% with an inconclusive outcome. The full list was thinned out, with actives kept by preference.
Property: max response, negative = inhibition (%)
One number for each entry, in %.

In [3]: df
Out[3]:
                                   compound  measure_unit  observed
0  CCOC(=O)c1ccc(NC(=O)C2CC(=O)N(c3ccc4c(c3)OCCO4)C2)cc1 (stereo not given)             %     -6.01

Please supply max response, negative = inhibition for each of the following items, keeping them in order.
1. Cc1ccc(Cl)cc1N1CCN(C(=O)c2cn(C)c3ccc(S(=O)(=O)N(C)C4CCCCC4)cc3c2=O)CC1
2. COc1cccc(-c2nc(Nc3ccncc3)c3ccccc3n2)c1
3. CC1(C)OC2CC(=O)OC[C@@]23C1CC(=O)[C@]1(C)C3CC[C@@]2(C)C(c3ccoc3)OC(=O)C3O[C@@]321 (stereo not given in full)
4. Cc1cc(C)cc(-n2ccnc2SCC(=O)Nc2nc3ccccc3s2)c1
5. Cc1ccc(NC(=O)CN2CCC(C(N)=O)CC2)cc1[N+](=O)[O-]
6. Cc1cc(Cl)ccc1OCC(=O)N(Cc1ccc(N(C)C)cc1)C1CCS(=O)(=O)C1 (stereo not given)

Output:
1. -5.35
2. 16.5
3. 3.74
4. -5.28
5. -4.1
6. 9.26

Please supply max response, negative = inhibition for each of the following items, keeping them in order.
1. O=C(c1csnn1)N1CCC2(CC1)CN(c1ncccn1)C2
2. CCN(CC)c1nc(C#N)nc(OC)n1
3. C/C(Nc1ccc2oc(=O)ccc2c1)=C1/C(=O)CC2[C@@H]1C2(C)C (stereo not given in full)
4. CCOc1cc(/C=C(\C#N)C(=O)Nc2ccccc2C)ccc1OCc1cc(=O)n2nc(CC)sc2n1
5. COc1ccc2oc(-c3ccc(C)c(NC(=O)c4sc5ccccc5c4Cl)c3)nc2c1
6. CC(=O)c1ccccc1NC(=O)C1CC(=O)N(c2ccc3c(c2)OCCO3)C1 (stereo not given)

Output:
[-1.15, -23.3, -29.7, -13.9, -13.7, 0.279]

Please supply max response, negative = inhibition for each of the following items, keeping them in order.
1. O=C(NCCc1ccc(Cl)cc1)c1ccc2c(c1)N(Cc1ccc(F)cc1)C(=O)CS2
2. O=C1NC(c2ccc(-c3ccccc3[N+](=O)[O-])o2)C(C(=O)c2ccc(Cl)cc2)C(O)(C(F)(F)F)N1 (stereo not given)
3. CC(NC(=O)c1cc2c(=O)n3ccccc3nc2n(C(C)C)c1=N)c1ccccc1 (stereo not given)
4. Cc1cnc(CNc2nc(-c3cccnc3)nc3ccccc23)cn1
5. O=C(c1ccco1)N1CCC2(CC1)CN(c1ncccn1)C2

Output:
1: -1.91; 2: -20.1; 3: -2.71; 4: -20.5; 5: -6.75
